So I've got a bunch of compounds here, and I need their IC90 values.
# System: plasma kallikrein (Homo sapiens)
# Construct: from tissue
# Sequence (P03952 391-638 limits assumed): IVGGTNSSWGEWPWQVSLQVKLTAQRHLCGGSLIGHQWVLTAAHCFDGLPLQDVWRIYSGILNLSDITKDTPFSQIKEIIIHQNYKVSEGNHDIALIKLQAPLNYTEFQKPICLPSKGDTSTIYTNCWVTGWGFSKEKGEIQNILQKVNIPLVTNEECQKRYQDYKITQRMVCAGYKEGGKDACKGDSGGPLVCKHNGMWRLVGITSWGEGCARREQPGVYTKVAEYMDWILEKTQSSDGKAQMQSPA
# Sequence (P03952 20-390 partner limits assumed): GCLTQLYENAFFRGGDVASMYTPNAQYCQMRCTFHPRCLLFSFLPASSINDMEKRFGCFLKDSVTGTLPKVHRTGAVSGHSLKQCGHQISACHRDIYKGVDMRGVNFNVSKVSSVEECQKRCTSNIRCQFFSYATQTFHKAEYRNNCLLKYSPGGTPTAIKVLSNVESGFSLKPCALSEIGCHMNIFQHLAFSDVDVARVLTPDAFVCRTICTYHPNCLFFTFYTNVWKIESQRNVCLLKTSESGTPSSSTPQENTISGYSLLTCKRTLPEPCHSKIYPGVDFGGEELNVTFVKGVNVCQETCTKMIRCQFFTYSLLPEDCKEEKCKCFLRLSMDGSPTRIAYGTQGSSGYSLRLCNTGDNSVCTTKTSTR
# Assay: Neat human plasma assay, FXIIa contact pathway-activated, PFR-AMC substrate
# Format: biochemical
# Test settings: citrated human plasma 78% final, 10 nM human FXIIa, 100 μM PFR-AMC; read-out: Human Plasma Assay: IC90

*Q* Lookup: IC90 / plasma kallikrein (Homo sapiens) / Cc1ccnc([C@@]2(F)C[C@@H]2C(=O)Nc2cc(N(C)Cc3cn4cc(C5CC5)cc(N5CC(=O)N(C)C5=O)c4n3)nc(C)n2)n1 (racemic)
*A* 0.4 to 1.5 µM

*Q* Lookup: IC90 / plasma kallikrein (Homo sapiens) / Cc1ccnc([C@H]2C[C@@H]2C(=O)Nc2cc(NC(C)c3cn4cc(C5CC5)cc(N5CCN(C)C5=O)c4n3)nc(C)n2)n1 (stereo partly drawn)
*A* 0.4 to 1.5 µM

*Q* Lookup: IC90 / plasma kallikrein (Homo sapiens) / CN1CCN(c2cc(C3CC3)cn3cc(CNc4cc(NC(=O)[C@H]5C[C@@H]5c5cccc(Cl)c5)ncn4)nc23)C1=O
*A* 1.5 to 10 µM

*Q* Lookup: IC90 / plasma kallikrein (Homo sapiens) / Cc1ccnc([C@H]2C[C@@H]2C(=O)Nc2cc(OCc3cn4cc(C5CC5)cc(N5CC(=O)N(C)C5=O)c4n3)nc(OCCN(C)C)n2)n1
*A* < 0.4 µM

*Q* Lookup: IC90 / plasma kallikrein (Homo sapiens) / Cc1ccnc([C@H]2C[C@@H]2C(=O)Nc2ncc(F)c(NCc3cn4cc(C5CC5)cc(N5CC(=O)N(CCO)C5=O)c4n3)n2)n1 (racemic)
*A* < 0.4 µM

*Q* Lookup: IC90 / plasma kallikrein (Homo sapiens) / Cc1ccnc([C@H]2C[C@@H]2C(=O)Nc2cc(N3C[C@@H](O)C[C@@H]3c3cn4cc(C5CC5)ccc4n3)ncn2)c1 (relative stereo)
*A* 1.5 to 10 µM

*Q* Lookup: IC90 / plasma kallikrein (Homo sapiens) / COC(=O)CN1C(=O)CN(c2cc(C3CC3)cn3cc(COc4cc(NC(=O)[C@H]5C[C@@H]5c5nccc(C)n5)nc(C)n4)nc23)C1=O
*A* 0.4 to 1.5 µM

*Q* Lookup: IC90 / plasma kallikrein (Homo sapiens) / Cc1cc(NC(=O)[C@H]2C[C@@H]2c2nccc(C)n2)cc(NCc2cn3cc(C4CC4)cc(N4CC(=O)N(C)C4=O)c3n2)n1
*A* < 0.4 µM

*Q* Lookup: IC90 / plasma kallikrein (Homo sapiens) / N#Cc1ccc(Cl)cc1[C@@H]1C[C@H]1C(=O)Nc1cc(NCc2cn3cc(C4CC4)cc(CO)c3n2)ccn1 (racemic)
*A* 10 to 48 µM

*Q* Lookup: IC90 / plasma kallikrein (Homo sapiens) / O=C(Nc1cc(N2C[C@@H](O)C[C@@H]2c2cn3cc(C4CC4)ccc3n2)ncn1)[C@H]1C[C@@H]1c1cccc(Cl)c1
*A* 1.5 to 10 µM

*Q* Lookup: IC90 / plasma kallikrein (Homo sapiens) / Cc1ccnc([C@H]2C[C@@H]2C(=O)Nc2cc(N3C[C@@H](O)C[C@@H]3c3cn4cc([C@H]5C[C@@H]5C)ccc4n3)ncn2)n1 (relative stereo)
*A* 1.5 to 10 µM

*Q* Lookup: IC90 / plasma kallikrein (Homo sapiens) / Cc1ccnc([C@H]2C[C@@H]2C(=O)Nc2cc(OCc3cn4cc(C5CC5)cc(N5CC(=O)N(C)C5=O)c4n3)nc(C)n2)n1
*A* 0.4 to 1.5 µM
